Experiment: chemical genetic growth profiling, strain panel (AID 1159580);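 further: tested at 20 µM; growth read once vehicle control cultures reached saturation at 30 °C; 1 = growth at the plate median or of vehicle wells; lower values mean less growth of the strain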
Conditions: S. cerevisiae deletion strains, growth OD, locus YHR200W, strain rpn10, hits give low values
About 2,000 (36%) of roughly 5,500 compounds were called active. About 18% were inconclusive and are not listed. The list shows a part of the results.
ENDPOINT NAME: normalized growth
Answers are plain numbers.

{"columns": ["CHEMICAL STRING", "normalized growth"],
 "data": [
  ["c1ccc2c(c1)CN1CCCC1=N2", 0.979],
  ["N[C@H](Cc1ccccc1)C(=O)O", 1],
  ["COC(=O)c1c(C)cc(OC(=O)c2c(C)c(Cl)c(O)c(C=O)c2O)c(C)c1O", 0.985]
]}

Now look at this entry.
Data request: Entry under review: `N[C@H](Cc1cc(I)c(Oc2ccc(O)c(I)c2)c(I)c1)C(=O)O` . Reported normalized growth?
Data returned: 0.992

All values here come from PubChem BioAssay AID1159580.
